Recorded values, source ChEMBL document CHEMBL3860071.

# target under test: UniProt:P11712
# Sequence (P11712 whole entry): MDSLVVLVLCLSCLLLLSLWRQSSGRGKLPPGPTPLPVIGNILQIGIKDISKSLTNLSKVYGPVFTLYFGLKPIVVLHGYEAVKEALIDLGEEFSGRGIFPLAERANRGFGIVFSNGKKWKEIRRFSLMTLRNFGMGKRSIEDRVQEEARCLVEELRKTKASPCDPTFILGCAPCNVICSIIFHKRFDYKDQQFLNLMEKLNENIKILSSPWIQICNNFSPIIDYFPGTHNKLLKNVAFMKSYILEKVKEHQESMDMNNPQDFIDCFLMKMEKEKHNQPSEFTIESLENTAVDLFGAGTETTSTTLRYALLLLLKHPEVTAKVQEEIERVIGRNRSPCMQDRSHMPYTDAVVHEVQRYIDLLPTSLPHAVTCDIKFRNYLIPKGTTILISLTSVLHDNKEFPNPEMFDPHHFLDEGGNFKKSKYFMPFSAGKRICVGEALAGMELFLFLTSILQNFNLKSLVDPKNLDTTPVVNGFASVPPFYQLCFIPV
# procedure summary: Inhibition of recombinant human CYP2C9 expressed in baculosomes at 1 uM preincubated with protein prior to substrate addition measured after 40 mins in presence of NADP regeneration system by fluorimetric analysis
# Type: ADME
measure: inhibition at 40 min, 1 µM (%)

INSERT INTO assay_data (molecular_string, measure, measured) VALUES
  ('CC(C)c1ccc(Cn2c(=O)c(C(=O)NCCc3ccccc3)cc3c([N+](=O)[O-])cccc32)cc1', 'inhibition at 40 min, 1 µM', 30);

###

# procedure summary: Half life in rat liver […] S9 fraction at 5 uM in presence of NADPH by LC-MS/MS analysis
# Assay type: ADME, subcellular
measure: half-life at 5 µM (min)

INSERT INTO assay_data (molecular_string, measured) VALUES
  ('CC(C)c1ccc(Cn2c(=O)c(C(=O)NCCc3ccccc3)cc3c([N+](=O)[O-])cccc32)cc1', 7);

###

In this section we review reported viability at 72 h, 10 µM values for a set of molecules.
# procedure summary: Cytotoxicity against human Jurkat T cells assessed as cell survival at 10 uM measured after 3 days by MTT assay
# Assay type: toxicity, cell-based
# reported conditions: read-out: Survival
measure: viability at 72 h, 10 µM (%)

INSERT INTO assay_data (molecular_string, measure, measured) VALUES
  ('COc1ccc(Cn2c(=O)c(C(=O)NCCc3ccccc3)cc3c(Cl)cccc32)cc1', 'viability at 72 h, 10 µM', 87),
  ('Cc1ccc(Cn2c(=O)c(C(=O)NCCc3ccccc3)cc3c([N+](=O)[O-])cccc32)cc1', 'viability at 72 h, 10 µM', 81),
  ('COc1ccc(Cn2c(=O)c(C(=O)NCc3ccccc3)cc3c(N)cccc32)cc1', 'viability at 72 h, 10 µM', 98),
  ('O=C(NCCc1ccccc1)c1cc2c([N+](=O)[O-])cccc2n(Cc2ccc(Br)cc2)c1=O', 'viability at 72 h, 10 µM', 64),
  ('COc1cccc(Cn2c(=O)c(C(=O)NCCc3ccccc3)cc3c([N+](=O)[O-])cccc32)c1', 'viability at 72 h, 10 µM', 97),
  ('O=C(NCCc1ccccc1)c1cc2c([N+](=O)[O-])cccc2n(Cc2ccccc2)c1=O', 'viability at 72 h, 10 µM', 91),
  ('COc1ccc(Cn2c(=O)c(C(=O)NCCc3ccc(Br)cc3)cc3c(N)cccc32)cc1', 'viability at 72 h, 10 µM', 93),
  ('O=C(NCCc1ccccc1)c1cc2c([N+](=O)[O-])cccc2n(Cc2ccc(OC(F)(F)F)cc2)c1=O', 'viability at 72 h, 10 µM', 96),
  ('COc1ccc(Cn2c(=O)c(C(=O)NCCCc3ccccc3)cc3c(N)cccc32)cc1', 'viability at 72 h, 10 µM', 97),
  ('CCc1ccc(Cn2c(=O)c(C(=O)NCCc3ccccc3)cc3c(Cl)cccc32)cc1', 'viability at 72 h, 10 µM', 97),
  ('COCCCNC(=O)c1cc2c(N)cccc2n(Cc2ccc(OC)cc2)c1=O', 'viability at 72 h, 10 µM', 97),
  ('CCc1ccc(CCNC(=O)c2cc3c(N)cccc3n(Cc3ccc(OC)cc3)c2=O)cc1', 'viability at 72 h, 10 µM', 97),
  ('COc1ccc(Cn2c(=O)c(C(=O)NCCc3ccc(O)cc3)cc3c(N)cccc32)cc1', 'viability at 72 h, 10 µM', 97),
  ('COc1ccc(Cn2c(=O)c(C(=O)NCCc3ccc4c(c3)OCO4)cc3c(N)cccc32)cc1', 'viability at 72 h, 10 µM', 96),
  ('O=C(NCCc1ccccc1)c1cc2c([N+](=O)[O-])cccc2n(Cc2ccc([N+](=O)[O-])cc2)c1=O', 'viability at 72 h, 10 µM', 97),
  ('COc1ccc(Cn2c(=O)c(C(=O)NCCc3ccc(OC)c(O)c3)cc3c(N)cccc32)cc1', 'viability at 72 h, 10 µM', 99),
  ('CC(C)c1ccc(Cn2c(=O)c(C(=O)NCCc3ccccc3)cc3c(Cl)cccc32)cc1', 'viability at 72 h, 10 µM', 91),
  ('COc1ccc(Cn2c(=O)c(C(=O)NCCc3ccc(O)c(O)c3)cc3c(N)cccc32)cc1', 'viability at 72 h, 10 µM', 98),
  ('COc1ccc(Cn2c(=O)c(C(=O)NCCc3ccc(C)cc3)cc3c(N)cccc32)cc1', 'viability at 72 h, 10 µM', 99);

###

# procedure summary: Cytotoxicity against human Jurkat T cells assessed as cell survival at 10 uM measured after 3 days by MTT assay
# Assay type: toxicity, cell-based
# reported conditions: read-out: Survival
In this section we review reported viability at 72 h, 10 µM values for a set of compounds.
measure: viability at 72 h, 10 µM (%)

INSERT INTO results (molecular_string, measure_unit, measured) VALUES
  ('O=C(NCCc1ccccc1)c1cc2c([N+](=O)[O-])cccc2n(Cc2ccc(F)cc2)c1=O', '%', 98),
  ('CCc1ccc(Cn2c(=O)c(C(=O)NCCc3ccccc3)cc3c([N+](=O)[O-])cccc32)cc1', '%', 96),
  ('COc1ccc(Cn2c(=O)c(C(=O)NCCc3ccccc3)cc3c(N)cccc32)cc1', '%', 98),
  ('COc1ccc(Cn2c(=O)c(C(=O)NCCc3ccncc3)cc3c(N)cccc32)cc1', '%', 93),
  ('COc1ccc(Cn2c(=O)c(C(=O)NCCc3ccccc3)cc3c([N+](=O)[O-])cccc32)cc1', '%', 96),
  ('COc1ccc(Cn2c(=O)c(C(=O)NCCc3ccc(Cl)cc3)cc3c(N)cccc32)cc1', '%', 96),
  ('COc1ccc(Cn2c(=O)c(C(=O)NCCc3ccccc3)cc3ccc([N+](=O)[O-])cc32)cc1', '%', 95),
  ('N#Cc1ccc(Cn2c(=O)c(C(=O)NCCc3ccccc3)cc3c([N+](=O)[O-])cccc32)cc1', '%', 95),
  ('CC(C)c1ccc(Cn2c(=O)c(C(=O)NCCc3ccccc3)cc3c([N+](=O)[O-])cccc32)cc1', '%', 93),
  ('CC(C)(C)c1ccc(Cn2c(=O)c(C(=O)NCCc3ccccc3)cc3c([N+](=O)[O-])cccc32)cc1', '%', 94),
  ('O=C(NCCc1ccccc1)c1cc2c([N+](=O)[O-])cccc2n(Cc2ccc(Cl)cc2)c1=O', '%', 97),
  ('COc1ccc(Cn2c(=O)c(C(=O)NCC(C)C)cc3c(N)cccc32)cc1', '%', 99),
  ('COc1ccc(CCNC(=O)c2cc3c(N)cccc3n(Cc3ccc(OC)cc3)c2=O)cc1', '%', 96);

###

# procedure summary: Half life in human liver S9 fraction at 5 uM in presence of NADPH by LC-MS/MS analysis
# Type: ADME, subcellular
measure: half-life at 5 µM (min)

INSERT INTO results (molecular_string, measured) VALUES
  ('CC(C)c1ccc(Cn2c(=O)c(C(=O)NCCc3ccccc3)cc3c([N+](=O)[O-])cccc32)cc1', 7);

###

# procedure summary: Half life in mouse liver […] S9 fraction at 5 uM in presence of NADPH by LC-MS/MS analysis
# Format: ADME, subcellular
measure: half-life at 5 µM

INSERT INTO results (molecular_string, measured) VALUES
  ('CC(C)c1ccc(Cn2c(=O)c(C(=O)NCCc3ccccc3)cc3c([N+](=O)[O-])cccc32)cc1', '7 min');
